measured target: anti-HER2 memAb (trastuzumab-based, meditope-enabled anti-HER2 antibody)
Sequence (heavy, as listed by the source, chain 1 of 2): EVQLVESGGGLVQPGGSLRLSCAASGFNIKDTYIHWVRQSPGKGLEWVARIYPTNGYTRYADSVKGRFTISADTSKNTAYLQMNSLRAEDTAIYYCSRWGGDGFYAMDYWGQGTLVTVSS
Sequence (light, as listed by the source, chain 2 of 2): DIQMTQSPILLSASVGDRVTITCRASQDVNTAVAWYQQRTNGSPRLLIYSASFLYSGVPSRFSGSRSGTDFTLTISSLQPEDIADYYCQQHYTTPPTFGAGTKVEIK
experiment summary: SPR; memAb variant amine-coupled to a CM5 chip, peptide flowed over at 30 uL/min, HBS-EP+, 37 °C, Biacore T100, 1:1 binding model
Positions of bridges follow the written chain, without caps; N, C: chain ends. No end group written: not given here.
parameter: Kd
The reply should consist of the numeric value with the unit placed after it.

Prompt line: Entry under review: CQFDLSTRRLKC (disulfide 1-12 (inferred)) [original meditope (…)] . Reported Kd?
Response line: 1000 nM
